- Tested on: CP268
- protocol summary: qHTS profiling for inhibitors of Plasmodium falciparum proliferation (AID 504749); note: nearly all actives have a fitted effect of over 60% in size
- assay setup: P. falciparum in erythrocytes, SYBR Green DNA, 72 h; series mostly up to 28.7 µM
Inconclusive results are not listed. Activity calls are given as the source filed them. Calls come from the whole dose curve; as a rule, active = well fitted inhibition curve with a large enough effect; inconclusive = small, poorly fitted or top-dose-only effect; inactive = flat fitted curve, though single readings scatter.
Would you mind answering with one of these outcomes? true (1) = active, false (0) = inactive

Task: Could you check what this test reported for CCOc1ccc(S(=O)(=O)O)c2cccnc12 ?
Output: false (0)

Task: Here is the next compound: CC(C)(C)c1ccc2c(S(=O)(=O)O)c(C(C)(C)C)ccc2c1
Output: false (0)

Task: Here is the next compound: O=C1CCC(=O)N1CO
Output: false (0)

Task: Here is the next compound: CC(C)[C@@H](N)C(=O)O
Output: false (0)

Task: Here is the next compound: O=C(O)C1=C(CSc2nnnn2CS(=O)(=O)O)CS[C@@H]2[C@H](NC(=O)[C@H](O)c3ccccc3)C(=O)N12
Output: false (0)

Task: Here is the next compound: CCCOc1cc(N)ccc1C(=O)OCCN(CC)CC
Output: false (0)

Task: Here is the next compound: CC1=CC(=C(c2ccc(N)cc2)c2ccc(N)cc2)C=CC1=N
Output: true (1)

Task: Here is the next compound: O=C(O)CC/C=C\CC[C@@H]1[C@@H](N2CCCCC2)[C@@H](O)C[C@@H]1OCc1ccc(-c2ccccc2)cc1
Output: false (0)

Task: Here is the next compound: CC1CC(O)CC(C)(C)C1 (centres undefined)
Output: false (0)

Task: Here is the next compound: CCCCCCCCCCCCCCCCCC[N+](C)(C)CCC[Si](OC)(OC)OC
Output: false (0)

Task: Here is the next compound: CCN(CC)C(=S)S
Output: false (0)

Task: Here is the next compound: CC(=O)N[C@@H]1C(O[C@H]2O[C@H](C(=O)O)C(O)[C@H](O)[C@H]2O)[C@H](O)[C@@H](CO)O[C@H]1O[C@@H]1C(C(=O)O)O[C@@H](O[C@H]2[C@H](O)[C@@H](CO)OC(O)[C@@H]2NC(C)=O)[C@H](O)[C@H]1O (some centres undefined)
Output: false (0)

Task: Here is the next compound: CC(=O)Nc1ccc(OC(=O)c2ccccc2O)cc1
Output: false (0)

Task: Here is the next compound: C(=C\c1ccncc1)/c1ccccc1
Output: false (0)

Task: Here is the next compound: FCOC(C(F)(F)F)C(F)(F)F
Output: false (0)

Task: Here is the next compound: CNC(=O)C[C@@H](N)C(=O)N[C@@H](C(=O)N[C@@H]1C(=O)N2[C@@H]1SC(C)(C)[C@@H]2C(=O)O)c1ccc(O)cc1
Output: false (0)

Task: Here is the next compound: C#C[C@]1(O)CC[C@@H]2[C@H]3CCC4=CC(=O)CC[C@H]4[C@H]3C(=C)C[C@@]21CC
Output: true (1)

Task: Here is the next compound: COc1ccc(/C=C/C(=O)OCCC(C)C)cc1
Output: false (0)

Task: Here is the next compound: C[C@H](CCCC(C)(C)O)[C@H]1CC[C@H]2[C@@H]3CC=C4C[C@@H](O)CC[C@]4(C)[C@H]3CC[C@]12C
Output: false (0)

Task: Here is the next compound: CCOC(=O)[C@@H](N)CS
Output: false (0)

Task: Here is the next compound: CCCCC[C@H](O)/C=C/[C@@H]1[C@H]2C/C(=C/CCCC(=O)O)O[C@H]2C[C@H]1O
Output: false (0)

Task: Here is the next compound: O=C(O)c1ccc(OCCn2ccnc2)cc1
Output: false (0)

Task: Here is the next compound: Cc1ncc(COP(=O)(O)O)c(CN)c1O
Output: false (0)

Task: Here is the next compound: CCc1ncnc2cc(OC)c(OC)cc12
Output: false (0)

Task: Here is the next compound: CC(CC=O)CCCC(C)(C)O (centres undefined)
Output: false (0)

Task: Here is the next compound: O=C(O)c1ccc(NC(=O)[C@H](Cc2ccc(O)cc2)NC(=O)c2ccccc2)cc1
Output: false (0)

Task: Here is the next compound: O=C(O)[C@H]1C(=CCO)O[C@H]2CC(=O)N12
Output: false (0)

Task: Here is the next compound: CCCCC/C=C\C/C=C\C/C=C\CCCCC(=O)O
Output: false (0)

Task: Here is the next compound: O=P(O)(O)OP(=O)(O)O
Output: false (0)

Task: Here is the next compound: O=C1c2ccccc2C(=O)C1c1ccc(F)cc1
Output: false (0)

Task: Here is the next compound: Nc1nc(=O)n([C@@H]2CS[C@H](CO)O2)cc1F
Output: false (0)

Task: Here is the next compound: N[C@H](CC(=O)O)C(=O)O
Output: false (0)

Task: Here is the next compound: CN[C@@H]1[C@H](O[C@H]2[C@H](O[C@H]3[C@H](O)[C@@H](O)[C@H](N=C(N)N)[C@@H](O)[C@@H]3N=C(N)N)O[C@@H](C)[C@]2(O)C=O)O[C@@H](CO)[C@H](O)[C@H]1O
Output: false (0)

Task: Here is the next compound: COc1ccc(C(=O)c2ccc(C)cc2)c(O)c1
Output: false (0)

Task: Here is the next compound: O=C(O)COc1ccc(CCNS(=O)(=O)c2ccccc2)s1
Output: false (0)

Task: Here is the next compound: CCCCCCCCCCCCCCCCCCCCCC(=O)Nc1ccn([C@@H]2O[C@H](CO)[C@@H](O)[C@@H]2O)c(=O)n1
Output: false (0)

Task: Here is the next compound: Cc1ccc(S(=O)(=O)NCl)cc1
Output: false (0)

Task: Here is the next compound: COc1ccc(/C=N/NC(=O)c2ccncc2)c(C(=O)O)c1OC
Output: false (0)

Task: Here is the next compound: CC(C)CCC[C@@H](C)[C@H]1CC[C@H]2[C@@H]3CC=C4C[C@@H](O)CC[C@]4(C)[C@H]3CC[C@]12C
Output: false (0)

Task: Here is the next compound: Cc1cccc(C)c1NC(=O)NC1=CCCN1C
Output: false (0)

Task: Here is the next compound: O=C(O)/C=C/C(=O)Nc1ccc(S(=O)(=O)Nc2nccs2)cc1
Output: false (0)

Task: Here is the next compound: CC(=O)c1ccc2c(c1)N(CCCN1CCN(CCO)CC1)c1ccccc1S2
Output: true (1)

Task: Here is the next compound: CCOC(=O)c1c[nH]c2cc(OCC(C)C)c(OCC(C)C)cc2c1=O
Output: true (1)

Task: Here is the next compound: CCN(CC)C(=O)c1cccnc1
Output: false (0)
